These data points were gathered from patent US11999715B2.

- System: ASK1 T838 auto phosphorylation (Homo sapiens)
- Method Description: ASK1 (AUTO PHOS T838) assay, MSD format, in HEK-293T cells transfected with ASK1-V5
- Cond: ASK1 T838 auto phosphorylation in HEK-293T cells, 1 hr compound incubation; class symbols
- Description: Example 112: Brief Description of ASK1(AUTO PHOS T838) Assay ASK1 T838 auto phosphorylation was measured in HEK-293T cells using MSD assay format. […] Cells were trypsinized, counted on Nexcellometer and plated into 96 well tissue culture plates with 100,000 cells/well and 200 μL media. […] Plates were immediately read on a MSD Instrument Reader where chemoluminescence signal was measured. […]
pIC50: −log10 of the molar value.
Reported Metric: pIC50

> print(dat)
                                    molecule  reported.metric  experimental.value
 1  COc1nn(C)cc1C(=O)Nc1cccc(-c2nncn2[C@H](C)C(F)F)n1 (single isomer, unassigned)            pIC50              ≥ 6.00
 2  COc1nn(C)cc1C(=O)Nc1cccc(-c2nncn2C2CCC2)n1            pIC50              ≥ 6.00
 3  COc1nn(CC(C)C)cc1C(=O)Nc1cccc(-c2nncn2C(C)C)n1            pIC50              ≥ 6.00
 4  CC(C)Oc1cncc(-n2cc(C(=O)Nc3cccc(-c4nncn4C(C)C)n3)c(C(F)F)n2)c1            pIC50              ≥ 6.00
 5  COc1nn(-c2cccnn2)cc1C(=O)Nc1cccc(-c2nncn2C(C)C)n1            pIC50              ≥ 6.00
 6  COc1nn(C)cc1C(=O)Nc1cccc(-c2nncn2[C@@H](C)CO)n1 (single isomer, unassigned)            pIC50        5.00 to 6.00
 7  COc1nn(CC(F)(F)F)cc1C(=O)Nc1cccc(-c2nncn2[C@@H](C)C(F)(F)F)n1            pIC50              ≥ 6.00
 8  COc1nn(CC2CC2)cc1C(=O)Nc1cccc(-c2nncn2[C@@H](C)C(F)(F)F)n1            pIC50              ≥ 6.00
 9  COc1nn(C)cc1C(=O)Nc1cccc(-c2nncn2C(C)CO)n1 (racemic)            pIC50        5.00 to 6.00
10  COc1cncc(-n2cc(C(=O)Nc3cccc(-c4nncn4C(C)C)n3)c(C(F)F)n2)c1            pIC50              ≥ 6.00
11  CC(C)n1cnnc1-c1cccc(NC(=O)c2cnn(C(C)(C)C)c2)n1            pIC50              ≥ 6.00
12  CC(C)n1cnnc1-c1cccc(NC(=O)c2cn(-c3cncc(C4CC4)c3)nc2C(F)F)n1            pIC50              ≥ 6.00
13  CCCn1cc(C(=O)Nc2cccc(-c3nncn3C(C)C(F)(F)F)n2)c(OC)n1 (stereo not drawn)            pIC50              ≥ 6.00
14  COc1nn(C)cc1C(=O)Nc1cccc(-c2nncn2[C@H](C)C(F)(F)F)n1            pIC50              ≥ 6.00
15  CC(C)n1cncc1-c1cccc(NC(=O)c2cn(-c3cncc(N(C)C)c3)nc2C(F)F)n1            pIC50              ≥ 6.00
16  C[C@H](n1cnnc1-c1cccc(NC(=O)c2cn(C)nc2C(F)F)n1)C(F)(F)F            pIC50        5.00 to 6.00
17  COc1nn(C)cc1C(=O)Nc1cccc(-c2nncn2[C@@H](C)C(F)F)n1 (single isomer, unassigned)            pIC50              ≥ 6.00
18  COc1nn(C)cc1C(=O)Nc1cccc(-c2nncn2C2CCOCC2)n1            pIC50        5.00 to 6.00
19  CC(C)n1cnnc1-c1cccc(NC(=O)c2cn(-c3cncc(N(C)C)c3)nc2C(F)F)n1            pIC50              ≥ 6.00
20  COc1nn(C)cc1C(=O)Nc1cccc(-c2nncn2[C@@H]2CCCNC2)n1            pIC50        5.00 to 6.00
21  COc1nn(C)cc1C(=O)Nc1cccc(-c2nncn2C2(C(F)(F)F)CC2)n1            pIC50              ≥ 6.00
22  COc1nn(C)cc1C(=O)Nc1cccc(-c2nncn2C2(C)COC2)n1            pIC50              < 5.00
23  COc1cncc(-n2cc(C(=O)Nc3cccc(-c4cncn4C(C)C)n3)c(C(F)F)n2)c1            pIC50              ≥ 6.00
24  C=CCn1cc(C(=O)Nc2cccc(-c3nncn3C(C)C)n2)c(OC)n1            pIC50              ≥ 6.00
25  COc1nn(CC2CC2)cc1C(=O)Nc1cccc(-c2cncn2C(C)C)n1            pIC50              ≥ 6.00
26  COc1nn(CCN2CCOCC2)cc1C(=O)Nc1cccc(-c2nncn2C(C)C)n1            pIC50              ≥ 6.00
27  CC(C)n1cncc1-c1cccc(NC(=O)c2cn(-c3cncc(C#N)c3)nc2C(F)F)n1            pIC50              ≥ 6.00
28  COc1nn(C)cc1C(=O)Nc1cccc(-c2nncn2C2COC2)n1            pIC50              < 5.00
29  COc1nn(-c2cnccn2)cc1C(=O)Nc1cccc(-c2nncn2[C@H](C)C(F)(F)F)n1            pIC50        5.00 to 6.00
30  CC(C)n1cnnc1-c1cccc(NC(=O)c2cn(C)nc2C(F)F)n1            pIC50              ≥ 6.00
31  CC(C)Oc1cncc(-n2cc(C(=O)Nc3cccc(-c4cncn4C(C)C)n3)c(C(F)F)n2)c1            pIC50              ≥ 6.00
32  COc1nn(Cc2ccccn2)cc1C(=O)Nc1cccc(-c2nncn2C(C)C)n1            pIC50              ≥ 6.00
33  CC(C)n1cnnc1-c1cccc(NC(=O)c2cn(CC3CC3)nc2C(F)F)n1            pIC50              ≥ 6.00

----------
- System: ASK1/MAP3K5 (Homo sapiens, UniProt Q99683)
- Sequence (Q99683 1-1374): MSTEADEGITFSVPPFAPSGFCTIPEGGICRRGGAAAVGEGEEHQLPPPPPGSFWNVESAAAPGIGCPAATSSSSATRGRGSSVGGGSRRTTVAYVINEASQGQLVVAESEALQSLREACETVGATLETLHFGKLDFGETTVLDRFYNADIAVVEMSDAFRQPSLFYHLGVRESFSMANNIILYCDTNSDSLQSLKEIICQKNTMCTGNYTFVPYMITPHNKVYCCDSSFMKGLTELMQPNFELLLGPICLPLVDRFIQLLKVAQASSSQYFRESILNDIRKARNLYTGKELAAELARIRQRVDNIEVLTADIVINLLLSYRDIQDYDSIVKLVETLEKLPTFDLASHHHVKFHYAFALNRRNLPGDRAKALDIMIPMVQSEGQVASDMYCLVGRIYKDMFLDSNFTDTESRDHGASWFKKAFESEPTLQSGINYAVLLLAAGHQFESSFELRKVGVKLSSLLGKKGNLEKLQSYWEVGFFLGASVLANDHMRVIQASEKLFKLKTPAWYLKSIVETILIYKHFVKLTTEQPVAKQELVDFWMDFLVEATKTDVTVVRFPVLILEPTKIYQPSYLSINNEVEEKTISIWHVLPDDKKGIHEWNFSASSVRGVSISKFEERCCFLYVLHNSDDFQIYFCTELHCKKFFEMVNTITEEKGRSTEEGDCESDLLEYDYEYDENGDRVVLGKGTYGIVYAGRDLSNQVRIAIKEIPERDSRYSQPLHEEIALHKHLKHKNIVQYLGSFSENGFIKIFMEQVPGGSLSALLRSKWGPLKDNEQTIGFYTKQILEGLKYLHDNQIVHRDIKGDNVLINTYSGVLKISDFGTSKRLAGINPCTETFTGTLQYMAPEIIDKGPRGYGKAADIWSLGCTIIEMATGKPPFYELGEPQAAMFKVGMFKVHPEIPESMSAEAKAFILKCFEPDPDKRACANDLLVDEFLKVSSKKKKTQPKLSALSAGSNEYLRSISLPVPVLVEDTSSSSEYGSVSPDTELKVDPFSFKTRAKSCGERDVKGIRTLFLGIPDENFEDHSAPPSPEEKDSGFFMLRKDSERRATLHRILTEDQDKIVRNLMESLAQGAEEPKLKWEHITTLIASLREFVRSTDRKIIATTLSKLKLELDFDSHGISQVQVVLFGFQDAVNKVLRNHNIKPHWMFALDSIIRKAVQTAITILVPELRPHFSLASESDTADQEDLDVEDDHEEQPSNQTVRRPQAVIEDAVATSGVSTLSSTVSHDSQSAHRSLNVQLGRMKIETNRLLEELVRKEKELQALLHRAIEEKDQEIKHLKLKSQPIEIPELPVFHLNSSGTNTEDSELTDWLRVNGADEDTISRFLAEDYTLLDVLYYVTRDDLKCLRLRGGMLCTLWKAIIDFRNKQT
- Method Description: ASK1/MAP3K5 kinase assay by Reaction Biology Corp. (headed ASK1 TR-FRET Assay)
- Format: biochemical
- Cond: 20 μM myelin basic protein, 10 μM ATP, class symbols
Listing of entries alongside the reported IC50.
Reported Metric: IC50

> print(dat)
                                    compound  experimental.value
 1  COc1nn(CC(F)(F)F)cc1C(=O)Nc1cccc(-c2nncn2C2CC2)n1            ≤ 100 nM
 2  COc1nn(C)cc1C(=O)Nc1cccc(-c2nncn2[C@@H]2CCC2(F)F)n1 (single isomer, unassigned)      100 to 1000 nM
 3  COc1nn(C)cc1C(=O)Nc1cccc(-c2nncn2C(C)CO)n1 (racemic)            ≤ 100 nM
 4  CC(C)n1cncc1-c1cccc(NC(=O)c2cn(-c3cncc(C#N)c3)nc2C(F)F)n1            ≤ 100 nM
 5  CC(C)n1cnnc1-c1cccc(NC(=O)c2cn(-c3cncc(C#N)c3)nc2C(F)F)n1            ≤ 100 nM
 6  COCCn1cc(C(=O)Nc2cccc(-c3nncn3[C@@H](C)C(F)(F)F)n2)c(OC)n1            ≤ 100 nM
 7  COc1nn(CC(F)(F)F)cc1C(=O)Nc1cccc(-c2nncn2[C@@H](C)C(C)C)n1            ≤ 100 nM
 8  COc1nn(C)cc1C(=O)Nc1cccc(-c2nncn2[C@H]2CCN(C(=O)OC(C)(C)C)C2)n1 (single isomer, unassigned)      100 to 1000 nM
 9  COc1nn(C)cc1C(=O)Nc1cccc(-c2nncn2C2CCC2(F)F)n1 (stereo not shown)            ≤ 100 nM
10  COc1nn(-c2cnccn2)cc1C(=O)Nc1cccc(-c2nncn2[C@H](C)C(F)(F)F)n1      100 to 1000 nM
